measurement_setup: in dichloromethane, 288.15 K
value_type: solubility (mole fraction)
// response body must contain only the number

In: Could you share which solubility (mole fraction) value was measured for `C1CC1N1C2C3N(C4CC4)C1C1N(C4CC4)C(C(N1C1CC1)N3C1CC1)N2C1CC1` ?
Out: 0.0169

----------
measurement_setup: in ethyl acetate, 298.15 K
value_type: solubility (mole fraction)
// response body must contain only the number

In: Could you share which solubility (mole fraction) value was measured for `C1CC1N1C2C3N(C4CC4)C1C1N(C4CC4)C(C(N1C1CC1)N3C1CC1)N2C1CC1` ?
Out: 0.00249

----------
measurement_setup: in acetone, 288.15 K
value_type: solubility (mole fraction)

In: Could you share which solubility (mole fraction) value was measured for `C1CC1N1C2C3N(C4CC4)C1C1N(C4CC4)C(C(N1C1CC1)N3C1CC1)N2C1CC1` ?
Out: 0.000411

----------
measurement_setup: in tetrachloromethane, 298.15 K
value_type: solubility (mole fraction)
// response body must contain only the number

In: Could you share which solubility (mole fraction) value was measured for `C1CC1N1C2C3N(C4CC4)C1C1N(C4CC4)C(C(N1C1CC1)N3C1CC1)N2C1CC1` ?
Out: 0.0415

----------
measurement_setup: in ethyl acetate, 318.15 K
value_type: solubility (mole fraction)
// response body must contain only the number

In: Could you share which solubility (mole fraction) value was measured for `C1CC1N1C2C3N(C4CC4)C1C1N(C4CC4)C(C(N1C1CC1)N3C1CC1)N2C1CC1` ?
Out: 0.00552

----------
measurement_setup: in acetone, 293.15 K
value_type: solubility (mole fraction)
// response body must contain only the number

In: Could you share which solubility (mole fraction) value was measured for `C1CC1N1C2C3N(C4CC4)C1C1N(C4CC4)C(C(N1C1CC1)N3C1CC1)N2C1CC1` ?
Out: 0.000503

----------
measurement_setup: in n-hexane, 303.15 K
value_type: solubility (mole fraction)
// response body must contain only the number

In: Could you share which solubility (mole fraction) value was measured for `C1CC1N1C2C3N(C4CC4)C1C1N(C4CC4)C(C(N1C1CC1)N3C1CC1)N2C1CC1` ?
Out: 0.00819

----------
measurement_setup: in acetonitrile, 308.15 K
value_type: solubility (mole fraction)
// response body must contain only the number

In: Could you share which solubility (mole fraction) value was measured for `C1CC1N1C2C3N(C4CC4)C1C1N(C4CC4)C(C(N1C1CC1)N3C1CC1)N2C1CC1` ?
Out: 0.000128

----------
measurement_setup: in methanol, 298.15 K
value_type: solubility (mole fraction)
// response body must contain only the number

In: Could you share which solubility (mole fraction) value was measured for `C1CC1N1C2C3N(C4CC4)C1C1N(C4CC4)C(C(N1C1CC1)N3C1CC1)N2C1CC1` ?
Out: 0.00018

----------
measurement_setup: in 1,2-dichloroethane, 298.15 K
value_type: solubility (mole fraction)
// response body must contain only the number

In: Could you share which solubility (mole fraction) value was measured for `C1CC1N1C2C3N(C4CC4)C1C1N(C4CC4)C(C(N1C1CC1)N3C1CC1)N2C1CC1` ?
Out: 0.00513

----------
measurement_setup: in methanol, 308.15 K
value_type: solubility (mole fraction)
// response body must contain only the number

In: Could you share which solubility (mole fraction) value was measured for `C1CC1N1C2C3N(C4CC4)C1C1N(C4CC4)C(C(N1C1CC1)N3C1CC1)N2C1CC1` ?
Out: 0.000259
